# system name: Peroxisome proliferator-activated receptor gamma (Homo sapiens) (UniProt P37231)
# Sequence (P37231 whole entry): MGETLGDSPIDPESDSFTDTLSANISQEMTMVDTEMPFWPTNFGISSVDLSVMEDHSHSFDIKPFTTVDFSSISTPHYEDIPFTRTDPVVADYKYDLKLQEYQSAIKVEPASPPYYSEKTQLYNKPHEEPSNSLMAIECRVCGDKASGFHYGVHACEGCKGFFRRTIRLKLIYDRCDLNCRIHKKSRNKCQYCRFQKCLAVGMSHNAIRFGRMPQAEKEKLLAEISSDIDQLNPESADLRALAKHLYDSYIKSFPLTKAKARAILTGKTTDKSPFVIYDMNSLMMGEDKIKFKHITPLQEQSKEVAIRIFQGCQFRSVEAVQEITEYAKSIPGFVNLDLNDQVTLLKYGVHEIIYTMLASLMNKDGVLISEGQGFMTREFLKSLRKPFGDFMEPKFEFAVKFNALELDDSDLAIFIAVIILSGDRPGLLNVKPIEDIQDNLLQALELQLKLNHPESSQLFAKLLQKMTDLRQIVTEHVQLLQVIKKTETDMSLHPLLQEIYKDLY
# run description: Minimum effective concentration required to activate Peroxisome proliferator activated receptor gamma (PPAR gamma)
Reported MEC values for a set of molecules
Unit µM implied. Number only.

Examples with their reported MEC follow.
sample_smiles=CC(/C=C/[C@@]1(C)[C@H](C)CCC(=O)[C@@H]1C)=C\Cc1c(O)c(C=O)c(C)c(Cl)c1OC(=O)c1cccnc1 readout_kind=MEC result_unit=µM recorded_result=10
sample_smiles=CC(/C=C/[C@@]1(C)[C@H](C)CCC(=O)[C@@H]1C)=C\Cc1c(O)c(C=O)c(C)c(Cl)c1OCC(=O)O readout_kind=MEC result_unit=µM recorded_result=30
sample_smiles=CC(/C=C/[C@@]1(C)[C@H](C)CCC(=O)[C@@H]1C)=C\Cc1c(O)c(C=O)c(C)c(Cl)c1OC(=O)c1ccncc1 readout_kind=MEC result_unit=µM recorded_result=10

Now examine the next entry.
Give the reported MEC for this molecule. CC(/C=C/[C@@]1(C)[C@H](C)CCC(=O)[C@@H]1C)=C\Cc1c(O)c(C=O)c(C)c(Cl)c1OC(=O)CCCC(=O)O
10

Source listed as ChEMBL document CHEMBL1145088.
